The reported measurements were obtained from patent US6693134B2.

- targetOfAssay: CXCR-4 (Homo sapiens, UniProt P61073)
- Sequence (P61073 whole entry): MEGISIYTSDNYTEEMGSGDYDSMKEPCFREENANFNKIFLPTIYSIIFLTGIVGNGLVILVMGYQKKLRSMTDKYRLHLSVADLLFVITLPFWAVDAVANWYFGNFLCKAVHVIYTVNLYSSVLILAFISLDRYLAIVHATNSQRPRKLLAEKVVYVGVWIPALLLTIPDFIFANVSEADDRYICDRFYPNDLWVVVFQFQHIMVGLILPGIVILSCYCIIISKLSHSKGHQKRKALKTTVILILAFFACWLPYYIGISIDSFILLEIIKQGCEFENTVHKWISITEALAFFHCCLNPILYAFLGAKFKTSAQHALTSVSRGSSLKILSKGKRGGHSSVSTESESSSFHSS
- testProtocol: Inhibition of SDF-1 induced intracellular [Ca2+]i mobilization in THP-1 cells
- Type: cell-based
- Set-up: endogenous in cells; host or cells: THP-1 cells
- conditions: Fura-2,AM loaded THP-1 cells; incubated 60 min prior to induction by 10 nM SDF-1
observedProperty: IC50 (µM)

• O=C(O)c1cc2ccccc2cc1O [Compound 1, 3-Hydroxy-2-naphthoic acid] = 0.6
